B1: SEC22B (parent)
chain: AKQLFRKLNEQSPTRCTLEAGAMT

- Variants of: B1
- procedure.text: protein stability index of a GFP-peptide fusion (GPS, HEK-293T) (PSI 1-6); higher = more stable;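 note: lentivirally expressed fusions sorted by FACS into six bins by GFP to DsRed ratio, PSI derived from sequencing read proportions per bin multiplied by bin number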
- condition.label: c terminus: a fixed tail appended
# if value of protein stability index reaches 2, tag satisfied; if it stays below, tag not satisfied

For orientation, consider the following solved cases.
alteration: N9K
label.value: satisfied
//
alteration: R15I
label.value: satisfied
//
alteration: S12G
label.value: satisfied
//
alteration: A22Q
label.value: not satisfied
//
alteration: A22D
label.value: satisfied
//
alteration: Q3G
label.value: satisfied
//
alteration: N9Y
label.value: satisfied
//
alteration: T24M
label.value: satisfied

Please look at the following variant next.
input: Does the variant E10P have recorded protein stability index that is 2 or more?
output: not satisfied
